- Test system: Rattus norvegicus
- assay text: Antiallergic activity was evaluated by passive cutaneous anaphylaxis test in egg albumin sensitized male Harlan-Sprague-Dawley rats when administered perorally
- Format: functional
- cond: po
ED50 reference
# value in mg/kg; strip the unit string

Consider the worked cases shown below.
- compound: "Cc1nc2c([nH]1)C(=O)N1CC(C)N=C1N2Cc1ccc(Cl)cc1 (stereo not given)"
  quantity measured: "ED50"
  recorded number: 30.2
- compound: "CC(C)CN1C2=NCCN2C(=O)c2[nH]c(C(C)C)nc21"
  quantity measured: "ED50"
  recorded number: 15.3
- compound: "CC1CN2C(=O)c3[nH]cnc3N(Cc3ccc(Cl)cc3)C2=N1 (stereo not given)"
  quantity measured: "ED50"
  recorded number: 10.6
- compound: "Cc1nc2c([nH]1)N(Cc1ccc(Cl)cc1)C1=NC(C)(C)CN1C2=O"
  quantity measured: "ED50"
  recorded number: 44.4

Now for another entry.
Identify the reported ED50 for the following entry. C[C@H]1N=C2N(Cc3ccc(Cl)cc3)c3[nH]cnc3C(=O)N2[C@H]1C 28.5
